- PROCEDURE TEXT: Genotoxicity against Salmonella typhimurium TA1535/pSK1002 assessed as induction ratio at 5 mg/ml by umuC assay in presence of S9 fraction
- Type: toxicity, organism-based
- TEST PARAMETERS: salmonella enterica subsp. enterica serovar typhimurium, Salmonella typhimurium TA1535/pSK1002 with S9 fraction
Reported fold induction at 5 mg/ml values for the following compounds.
# answer = number (no unit)

Previously resolved entries follow.
[[record]]
entry_smiles = "CN(C)c1ccc(/C=N/NC(=O)CSc2nnnn2C)cc1"
reported_result = 0.379

[[record]]
entry_smiles = "Cn1nnnc1SCC(=O)N/N=C/c1ccc(O)cc1"
reported_result = 0.419

[[record]]
entry_smiles = "Cn1nnnc1SCC(=O)N/N=C/c1ccccc1[N+](=O)[O-]"
reported_result = 1.19

[[record]]
entry_smiles = "COc1ccc(/C=N/NC(=O)CSc2nnnn2C)cc1"
reported_result = 0.568


## Input I have this compound here, Cn1nnnc1SCC(=O)N/N=C/c1ccccc1F , and I need its recorded fold induction at 5 mg/ml.
## Output 0.284

---

- Test system: Salmonella typhimurium
- PROCEDURE TEXT: Genotoxicity against Salmonella typhimurium TA98 assessed as fold increase in revertants at 1.25 mg/ml after 90 mins by Ames MPF test in absence of S9 fraction relative to baseline
- Assay type: toxicity, organism-based
- TEST PARAMETERS: salmonella enterica subsp. enterica serovar typhimurium, 1.5 h
MEASUREMENT TYPE: fold change (FC)
Note: the reply should be a number with no unit written.

Worked set:
[[record]]
entry_smiles = "Cn1nnnc1SCC(=O)N/N=C/c1ccccc1F"
measurement_type = "fold change (FC)"
reported_result = 0.32

[[record]]
entry_smiles = "CN(C)c1ccc(/C=N/NC(=O)CSc2nnnn2C)cc1"
measurement_type = "fold change (FC)"
reported_result = 0.64

[[record]]
entry_smiles = "Cn1nnnc1SCC(=O)N/N=C/c1ccccc1[N+](=O)[O-]"
measurement_type = "fold change (FC)"
reported_result = 2.78

[[record]]
entry_smiles = "Cn1nnnc1SCC(=O)N/N=C/c1ccc(O)cc1"
measurement_type = "fold change (FC)"
reported_result = 0.13


# evaluate next
## Input State the recorded fold change (FC) for this entry: COc1ccc(/C=N/NC(=O)CSc2nnnn2C)cc1
## Output 0.33

---

- System: Salmonella typhimurium
- PROCEDURE TEXT: Genotoxicity against Salmonella typhimurium TA100 assessed as fold increase in revertants at 0.3125 mg/ml after 90 mins by Ames MPF test in presence of S9 fraction relative to baseline
- Format: toxicity, organism-based
- TEST PARAMETERS: salmonella enterica subsp. enterica serovar typhimurium, s9, 1.5 h
Tick Yes if fold change (FC) is 0.8 or greater. Tick No if fold change (FC) is less than 0.8.

[[record]]
entry_smiles = "Cn1nnnc1SCC(=O)N/N=C/c1ccccc1[N+](=O)[O-]"
discrete_label = "Yes"


## Input Please check the record Cn1nnnc1SCC(=O)N/N=C/c1ccc(O)cc1 and state if its fold change (FC) is at or above 0.8.
## Output No

## Input Can CN(C)c1ccc(/C=N/NC(=O)CSc2nnnn2C)cc1 be said to have fold change (FC) at or above 0.8?
## Output No

## Input Is it the case that COc1ccc(/C=N/NC(=O)CSc2nnnn2C)cc1 has fold change (FC) reaching or exceeding 0.8?
## Output No

## Input Is the recorded value of fold change (FC) equal to or greater than 0.8 for this molecule? Cn1nnnc1SCC(=O)N/N=C/c1ccccc1F
## Output No

---

- Tested on: Salmonella typhimurium
- PROCEDURE TEXT: Genotoxicity against Salmonella typhimurium TA1535/pSK1002 assessed as growth factor ratio at 1.25 mg/ml by umuC assay in presence of S9 fraction
- Format: toxicity, organism-based
- TEST PARAMETERS: salmonella enterica subsp. enterica serovar typhimurium
Rule: Ratio below 1 gives Yes. Equal to or above 1 gives No.

Answered cases to consult:
[[record]]
entry_smiles = "CN(C)c1ccc(/C=N/NC(=O)CSc2nnnn2C)cc1"
discrete_label = "No"

[[record]]
entry_smiles = "Cn1nnnc1SCC(=O)N/N=C/c1ccccc1[N+](=O)[O-]"
discrete_label = "Yes"


## Input # strict comparison: is reported Ratio < 1? input = Cn1nnnc1SCC(=O)N/N=C/c1ccccc1F
## Output No

## Input Please check: Ratio for Cn1nnnc1SCC(=O)N/N=C/c1ccc(O)cc1 , strictly under 1 or not?
## Output No

## Input Consider COc1ccc(/C=N/NC(=O)CSc2nnnn2C)cc1 . Does its Ratio lie strictly below 1?
## Output No

---

- System: NIH3T3
- PROCEDURE TEXT: Cytotoxicity against mouse NIH/3T3 cells after 24 hrs by XTT assay
- Assay type: cell-based
- TEST PARAMETERS: NIH3T3, 24 h
MEASUREMENT TYPE: pIC50
Please note pIC50 is a logarithmic value: minus log10 of concentration in mol/L. Answer with that number alone.

For orientation, consider the following solved cases.
[[record]]
entry_smiles = "Cc1ccccc1/C=N/NC(=O)CSc1nnnn1C"
measurement_type = "pIC50"
reported_result = 2.20

[[record]]
entry_smiles = "Cn1nnnc1SCC(=O)N/N=C/c1ccccc1"
measurement_type = "pIC50"
reported_result = 2.01

[[record]]
entry_smiles = "Cn1nnnc1SCC(=O)N/N=C/c1ccc([N+](=O)[O-])cc1"
measurement_type = "pIC50"
reported_result = 2.03


## Input Look up pIC50 for this compound: Cn1nnnc1SCC(=O)N/N=C/c1ccccc1Br
## Output 4.70

## Input For the compound shown here, C/C(=N\NC(=O)CSc1nnnn1C)c1ccccc1Cl , give the reported pIC50.
## Output 2.22

---

// reported Ratio per item
- System: Salmonella typhimurium
- PROCEDURE TEXT: Genotoxicity against Salmonella typhimurium TA1535/pSK1002 assessed as growth factor ratio at 0.63 mg/ml by umuC assay in presence of S9 fraction
- Format: toxicity, organism-based
- TEST PARAMETERS: salmonella enterica subsp. enterica serovar typhimurium

[[record]]
entry_smiles = "COc1ccc(/C=N/NC(=O)CSc2nnnn2C)cc1"
measurement_type = "Ratio"
reported_result = 1.117

[[record]]
entry_smiles = "Cn1nnnc1SCC(=O)N/N=C/c1ccccc1F"
measurement_type = "Ratio"
reported_result = 0.935

[[record]]
entry_smiles = "Cn1nnnc1SCC(=O)N/N=C/c1ccccc1[N+](=O)[O-]"
measurement_type = "Ratio"
reported_result = 0.969


## Input Ratio of Cn1nnnc1SCC(=O)N/N=C/c1ccc(O)cc1 on Salmonella typhimurium?
## Output 1.13

## Input Give Ratio (Salmonella typhimurium) of the following molecule: CN(C)c1ccc(/C=N/NC(=O)CSc2nnnn2C)cc1
## Output 1.268

---

Below is a list of entries, each paired with its recorded IC50 value.
- Tested on: A549
- PROCEDURE TEXT: Cytotoxicity against human A549 cells after 24 hrs by XTT assay
- Assay type: functional, cell-based
- TEST PARAMETERS: A549, 24 h
Kindly provide the numeric value in mM only, without the unit symbol.

[[record]]
entry_smiles = "CC(C)c1ccc(/C=N/NC(=O)CSc2nnnn2C)cc1"
assay_system = "A549"
measurement_type = "IC50"
reported_result = 0.4


## Input Can you look up the measured IC50 of C/C(=N\NC(=O)CSc1nnnn1C)c1ccccc1Cl for me?
## Output 6.32

## Input Please give the measured IC50 for this molecule: Cn1nnnc1SCC(=O)N/N=C/c1ccccc1[N+](=O)[O-]
## Output 1.6

---

fold change (FC) values by entry
- Tested on: Salmonella typhimurium
- PROCEDURE TEXT: Genotoxicity against Salmonella typhimurium TA98 assessed as fold increase in revertants at 5 mg/ml after 90 mins by Ames MPF test in presence of S9 fraction relative to baseline
- Type: toxicity, organism-based
- TEST PARAMETERS: salmonella enterica subsp. enterica serovar typhimurium, s9, 1.5 h
Please reply with the number alone, leaving off any unit.

[[record]]
entry_smiles = "CN(C)c1ccc(/C=N/NC(=O)CSc2nnnn2C)cc1"
assay_system = "Salmonella typhimurium"
reported_result = 0.86

[[record]]
entry_smiles = "COc1ccc(/C=N/NC(=O)CSc2nnnn2C)cc1"
assay_system = "Salmonella typhimurium"
reported_result = 0.84


## Input Reported fold change (FC), molecule Cn1nnnc1SCC(=O)N/N=C/c1ccccc1F : ____
## Output 1.14

## Input Form field: reported fold change (FC) of Cn1nnnc1SCC(=O)N/N=C/c1ccccc1[N+](=O)[O-]
## Output 1.11

## Input Field request: fold change (FC) | item: Cn1nnnc1SCC(=O)N/N=C/c1ccc(O)cc1
## Output 0.63

---

- Tested on: Salmonella typhimurium
- PROCEDURE TEXT: Genotoxicity against Salmonella typhimurium TA100 assessed as fold increase in revertants at 5 mg/ml after 90 mins by Ames MPF test in presence of S9 fraction relative to baseline
- Assay type: toxicity, organism-based
- TEST PARAMETERS: salmonella enterica subsp. enterica serovar typhimurium, s9, 1.5 h
MEASUREMENT TYPE: fold change (FC)
I'd appreciate a reply containing only the number, no unit.

Example entries and their recorded answers appear below.
[[record]]
entry_smiles = "Cn1nnnc1SCC(=O)N/N=C/c1ccccc1F"
reported_result = 0.58

[[record]]
entry_smiles = "COc1ccc(/C=N/NC(=O)CSc2nnnn2C)cc1"
reported_result = 0.5


## Input Sample Cn1nnnc1SCC(=O)N/N=C/c1ccc(O)cc1 — what was its fold change (FC)?
## Output 0.82

## Input So what does the record say about fold change (FC) for CN(C)c1ccc(/C=N/NC(=O)CSc2nnnn2C)cc1 ?
## Output 0.26

## Input Which fold change (FC) value is on record for Cn1nnnc1SCC(=O)N/N=C/c1ccccc1[N+](=O)[O-] ?
## Output 1.7

Hello, the source for this data is ChEMBL document CHEMBL2203123, in case you need it.
